target: human TLR7 (Homo sapiens (Human)); experiment: TLR7 inhibition reporter assay (HEK-Blue SEAP); type: cell-based; details: HEK-Blue human TLR7 cells, gardiquimod 7.5 μM
Sequence (Q9NYK1 27-1049): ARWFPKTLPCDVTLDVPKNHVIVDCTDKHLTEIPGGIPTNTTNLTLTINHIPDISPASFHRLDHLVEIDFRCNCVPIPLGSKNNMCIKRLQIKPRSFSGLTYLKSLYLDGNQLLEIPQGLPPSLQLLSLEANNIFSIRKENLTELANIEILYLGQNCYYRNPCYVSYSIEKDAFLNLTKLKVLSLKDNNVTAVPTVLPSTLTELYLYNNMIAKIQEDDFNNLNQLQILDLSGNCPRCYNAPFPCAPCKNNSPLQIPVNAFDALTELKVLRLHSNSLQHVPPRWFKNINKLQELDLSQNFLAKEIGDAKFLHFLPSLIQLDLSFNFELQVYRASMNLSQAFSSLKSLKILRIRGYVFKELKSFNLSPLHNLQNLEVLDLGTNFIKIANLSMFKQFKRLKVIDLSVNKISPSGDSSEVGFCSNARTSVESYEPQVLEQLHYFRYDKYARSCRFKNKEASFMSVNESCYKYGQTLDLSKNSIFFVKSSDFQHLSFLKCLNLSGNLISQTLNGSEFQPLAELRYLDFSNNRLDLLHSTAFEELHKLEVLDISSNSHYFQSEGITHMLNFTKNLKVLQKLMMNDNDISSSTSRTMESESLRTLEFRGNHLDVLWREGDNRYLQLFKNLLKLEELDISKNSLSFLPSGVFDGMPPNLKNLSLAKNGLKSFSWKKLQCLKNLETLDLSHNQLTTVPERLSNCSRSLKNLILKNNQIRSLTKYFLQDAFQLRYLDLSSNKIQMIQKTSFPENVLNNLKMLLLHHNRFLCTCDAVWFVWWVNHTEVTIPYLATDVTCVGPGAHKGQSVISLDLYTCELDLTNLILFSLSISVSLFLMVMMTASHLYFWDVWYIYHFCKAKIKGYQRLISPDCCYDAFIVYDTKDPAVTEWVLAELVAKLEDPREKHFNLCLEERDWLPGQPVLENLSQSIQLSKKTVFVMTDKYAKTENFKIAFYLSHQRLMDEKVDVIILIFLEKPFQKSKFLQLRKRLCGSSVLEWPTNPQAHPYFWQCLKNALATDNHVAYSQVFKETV
Property: IC50 (nM)

molecule="Cc1c(-c2[nH]c3ccc(N4C[C@@H](C)NC[C@H]4C)nc3c2C(C)C)cn2ncnc2c1C [Example 993]" unit_text=nM value_observed=0.82
molecule="Cc1c(-c2[nH]c3ccc(N4C[C@H](C)N(C(=O)CN(C)C(C)C)C[C@H]4C)nc3c2C(C)C)cn2ncnc2c1C [Example 938]" unit_text=nM value_observed=2.6
molecule="Cc1c(-c2[nH]c3ccc(C4CCC(N5CCOCC5)CC4)nc3c2C(C)C)cn2ncnc2c1C (stereo not shown) [Example 1064]" unit_text=nM value_observed=0.34
molecule="Cc1c(-c2[nH]c3ccc(N4C[C@@H](C)N(C(=O)CN(C(C)C)C(C)C)C[C@@H]4C)nc3c2C(C)C)cn2ncnc2c1C [Example 910]" unit_text=nM value_observed=0.68
molecule="Cc1c(-c2[nH]c3ccc(N4C[C@@H](C)N(CCC(N)=O)C[C@@H]4C)nc3c2C(C)C)cn2ncnc2c1C [Example 848]" unit_text=nM value_observed=1.2

(a) Cc1c(-c2[nH]c3ccc(N4C[C@@H](C)N(C(=O)CCN5CC6(CCOC6)C5)C[C@@H]4C)nc3c2C(C)C)cn2ncnc2c1C [Example 960]
(b) Cc1c(-c2[nH]c3ccc(N4C[C@@H](C)N(CCCS(C)(=O)=O)[C@@H](C)C4)nc3c2C(C)C)cn2ncnc2c1C [Example 868]
Compare reported IC50 values for a and b . Which is lower? Your answer should be the label of the entry you select.
a

(1) Cc1c(-c2[nH]c3ccc(N4CCN(C(=O)CN(C)C(C)(C)C)CC4)nc3c2C(C)C)cn2ncnc2c1C [Example 878]
(2) Cc1c(-c2[nH]c3ccc(N4[C@H](C)CN(C(=O)CCN(C)C)C[C@H]4C)nc3c2C(C)C)cn2ncnc2c1C [Example 864]
(3) CCN(C)CC(=O)N1CCN(c2ccc3[nH]c(-c4cn5ncnc5c(C)c4C)c(C(C)C)c3n2)C[C@@H]1C [Example 897]
In this exercise, place the 3 molecules in ascending sequence of their recorded IC50. A complete answer lists every label in the requested sequence.
1, 3, 2
(1: 0.48 nM, 3: 0.86 nM, 2: 1.5 nM)

====

biological target: human TLR9 (Homo sapiens (Human), UniProt Q9NR96); assay: TLR9 inhibition reporter assay (HEK-Blue SEAP); conditions: read-out: TLR9 IC50; HEK-Blue human TLR9 cells, ODN2006 5 nM;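 also: SEAP driven by an IFN-β minimal promoter with NF-κB and AP-1 sites, read after 22 h, compounds dosed 0.05 nM–50 µM, inhibition scaled between agonist plus DMSO and reference-inhibitor wells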
Sequence (Q9NR96 26-1032): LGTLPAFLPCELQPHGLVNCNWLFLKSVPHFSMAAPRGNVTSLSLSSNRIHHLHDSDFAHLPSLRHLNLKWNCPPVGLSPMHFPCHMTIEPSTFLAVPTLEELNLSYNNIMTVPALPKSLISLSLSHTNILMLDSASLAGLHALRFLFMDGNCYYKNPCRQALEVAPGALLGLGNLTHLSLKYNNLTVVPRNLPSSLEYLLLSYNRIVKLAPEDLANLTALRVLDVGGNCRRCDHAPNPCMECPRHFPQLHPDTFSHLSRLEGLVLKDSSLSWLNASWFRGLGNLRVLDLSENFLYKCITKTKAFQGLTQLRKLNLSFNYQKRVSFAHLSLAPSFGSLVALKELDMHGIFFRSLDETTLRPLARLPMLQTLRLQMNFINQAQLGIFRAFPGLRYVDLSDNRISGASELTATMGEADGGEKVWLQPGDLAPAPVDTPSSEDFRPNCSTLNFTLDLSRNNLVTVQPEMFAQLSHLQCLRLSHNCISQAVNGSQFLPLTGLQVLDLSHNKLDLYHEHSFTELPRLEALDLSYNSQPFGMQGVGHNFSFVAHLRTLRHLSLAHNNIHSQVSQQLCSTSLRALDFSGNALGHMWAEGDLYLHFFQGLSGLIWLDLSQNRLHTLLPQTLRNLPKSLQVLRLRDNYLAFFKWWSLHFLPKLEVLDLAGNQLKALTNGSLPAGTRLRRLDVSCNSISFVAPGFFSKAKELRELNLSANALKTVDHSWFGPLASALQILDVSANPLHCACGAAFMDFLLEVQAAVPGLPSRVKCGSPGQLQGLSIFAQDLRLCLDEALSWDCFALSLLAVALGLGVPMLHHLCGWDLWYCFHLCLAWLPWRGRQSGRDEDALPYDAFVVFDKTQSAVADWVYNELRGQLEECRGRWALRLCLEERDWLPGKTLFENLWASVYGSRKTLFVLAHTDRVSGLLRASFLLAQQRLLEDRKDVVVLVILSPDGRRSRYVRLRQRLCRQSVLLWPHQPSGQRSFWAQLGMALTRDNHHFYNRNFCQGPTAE
Property: IC50 (µM)

Example entries begin here.
compound="Cc1c(-c2[nH]c3ccc(C4CCC(O)(CN)CC4)nc3c2C(C)C)cn2ncnc2c1C (centres unmarked)" unit_text=µM value_observed=3.67
compound=Cc1c(-c2[nH]c3ccc(N4CC5(CN(C(=O)CCN(C)C)C5)C4)nc3c2C(C)C)cn2ncnc2c1C unit_text=µM value_observed=0.339
compound=Cc1c(-c2[nH]c3ccc(N4C5CNCC4COC5)nc3c2C(C)C)cn2ncnc2c1C unit_text=µM value_observed=6.92

(a) Cc1c(-c2[nH]c3ccc(C4CCC(N5CCC(F)C5)CC4)nc3c2C(C)C)cn2ncnc2c1C (centres unmarked) [Example 1062]
(b) Cc1c(-c2[nH]c3ccc(N4CCN(CCCS(C)(=O)=O)C[C@@H]4C)nc3c2C(C)C)cn2ncnc2c1C
IC50 comparison. Which is larger, a or b ? Your answer should be the label of the entry you select.
b
